- Tested on: MDA-MB-436
- Assay name: normalised response (% of control), CellTiter-Glo; higher = more viable cells (100 = DMSO, 0 = benzethonium chloride kill control)
- Assay context: incubation time: 72 h
molecules and their reported normalised response
Reported property: normalised response (%)

1) CO[C@@H]1[C@H](N(C)C(=O)c2ccccc2)C[C@H]2O[C@]1(C)n1c3ccccc3c3c4c(c5c6ccccc6n2c5c31)C(=O)NC4 [Midostaurin] (10 nM) = 104
2) O=[N+]([O-])c1ccc2c(c1)S(=O)(=O)C=C2 [Stattic] (50 nM) = 96.4
3) CNC(=O)c1ccccc1Sc1ccc2c(/C=C/c3ccccn3)n[nH]c2c1 [Axitinib] (1000 nM) = 97.8
4) COc1ccc(S(=O)(=O)Nc2cccnc2Nc2ccc(O)cc2)cc1 [ABT-751] (10 nM) = 108
5) COc1ccc(S(=O)(=O)Nc2cccnc2Nc2ccc(O)cc2)cc1 [ABT-751] (1 nM) = 93
6) CCn1c(C(=O)N(C2CC2)C2CC2)cc2c3c(ncn3C)c(Nc3cc(C)n(C)n3)nc21 (10 nM) = 103
7) CN(Cc1cnc2nc(N)nc(N)c2n1)c1ccc(C(=O)N[C@@H](CCC(=O)O)C(=O)O)cc1 [Methotrexate] (50 nM) = 86.1
8) CC(=O)[C@]1(O)Cc2c(O)c3c(c(O)c2[C@@H](O[C@H]2C[C@H](N)[C@H](O)[C@H](C)O2)C1)C(=O)c1ccccc1C3=O [Idarubicin] (1 nM) = 113
9) CCn1c(C(=O)N(C2CC2)C2CC2)cc2c3c(ncn3C)c(Nc3cc(C)n(C)n3)nc21 (1000 nM) = 105
10) CN(C)C(=N)NC(=N)N [Metformin] (10000 nM) = 101

====

- System: MCF-10A
- Assay name: normalised response (% of control), CellTox Green; higher = less cell death (100 = DMSO, 0 = benzethonium chloride kill control)
- Assay context: incubation time: 72 h
Reported property: normalised response (%)

1) CN[C@@H](C)C(=O)N[C@H]1CN(C(=O)CC(C)C)CC[C@H]2CC[C@@H](C(=O)NC(c3ccccc3)c3ccccc3)N2C1=O [AT-406] (100 nM) = 101
2) CCN(CC)CCCC(C)Nc1ccnc2cc(Cl)ccc12 (stereo unspecified) [Chloroquine] (100000 nM) = -62.8
3) CC(C)(C)c1nc(-c2cccc(NS(=O)(=O)c3c(F)cccc3F)c2F)c(-c2ccnc(N)n2)s1 [Dabrafenib] (250 nM) = 94.2
4) CC[C@H](CO)Nc1nc(NCc2ccccc2)c2ncn(C(C)C)c2n1 [Seliciclib] (1000 nM) = 101
5) Cc1cc(Nc2nc(N[C@@H](C)c3ncc(F)cn3)ncc2Cl)[nH]n1 [AZD1480] (1000 nM) = 98.9
6) COc1ccc(S(=O)(=O)Nc2cccnc2Nc2ccc(O)cc2)cc1 [ABT-751] (10000 nM) = 42.6
7) CC(C)(C)c1nc(-c2cccc(NS(=O)(=O)c3c(F)cccc3F)c2F)c(-c2ccnc(N)n2)s1 [Dabrafenib] (25 nM) = 108
8) C/C(=C\c1csc(C)n1)[C@@H]1C[C@@H]2O[C@]2(C)CCC[C@H](C)[C@H](O)[C@@H](C)C(=O)C(C)(C)[C@@H](O)CC(=O)N1 [Ixabepilone] (1000 nM) = 101
9) Nc1ccn([C@@H]2O[C@H](CO)[C@@H](O)C2(F)F)c(=O)n1 [Gemcitabine] (1000 nM) = 90.5
10) CNC(=O)c1ccccc1Sc1ccc2c(/C=C/c3ccccn3)n[nH]c2c1 [Axitinib] (1000 nM) = 97.6
11) CC(C)(C)NC(=O)[C@H]1CC[C@H]2[C@@H]3CC[C@H]4NC(=O)C=C[C@]4(C)[C@H]3CC[C@]12C [Finasteride] (1000 nM) = 91.2
12) CO[C@@H]1[C@H](N(C)C(=O)c2ccccc2)C[C@H]2O[C@]1(C)n1c3ccccc3c3c4c(c5c6ccccc6n2c5c31)C(=O)NC4 [Midostaurin] (10000 nM) = 93.3
13) CCNC(=O)c1noc(-c2cc(C(C)C)c(O)cc2O)c1-c1ccc(CN2CCOCC2)cc1 [NVP-AUY922] (1000 nM) = 39.3
14) CC(C)n1cnc2c(NCCc3ccc(O)cc3)nc(-c3csc4ccccc34)nc21 [StemRegenin 1] (100 nM) = 117
15) CN(Cc1cnc2nc(N)nc(N)c2n1)c1ccc(C(=O)N[C@@H](CCC(=O)O)C(=O)O)cc1 [Methotrexate] (5000 nM) = 107
16) C=CCn1c(=O)c2cnc(Nc3ccc(N4CCN(C)CC4)cc3)nc2n1-c1cccc(C(C)(C)O)n1 [MK1775] (100 nM) = 84.2

====

- Tested on: BT-474
- Assay name: normalised response (% of control), CellTox Green; higher = less cell death (100 = DMSO, 0 = benzethonium chloride kill control)
- Assay context: incubation time: 72 h
Reported property: normalised response (%)

1. CC(C)(C)c1nc(-c2cccc(NS(=O)(=O)c3c(F)cccc3F)c2F)c(-c2ccnc(N)n2)s1 [Dabrafenib] (25 nM) = 103
2. CC(C)n1cnc2c(NCCc3ccc(O)cc3)nc(-c3csc4ccccc34)nc21 [StemRegenin 1] (10000 nM) = 85.5
3. CN(Cc1cnc2nc(N)nc(N)c2n1)c1ccc(C(=O)N[C@@H](CCC(=O)O)C(=O)O)cc1 [Methotrexate] (500 nM) = 102
4. CCn1c(C(=O)N(C2CC2)C2CC2)cc2c3c(ncn3C)c(Nc3cc(C)n(C)n3)nc21 (100 nM) = 101
5. CC(=O)[C@]1(O)Cc2c(O)c3c(c(O)c2[C@@H](O[C@H]2C[C@H](N)[C@H](O)[C@H](C)O2)C1)C(=O)c1ccccc1C3=O [Idarubicin] (100 nM) = 72.2
6. CC1(COc2ccc3c(c2)ncn3-c2ccc3cccc(N4CCC(N)CC4)c3n2)COC1 [Crenolanib] (1000 nM) = 91.4
7. C=CCn1c(=O)c2cnc(Nc3ccc(N4CCN(C)CC4)cc3)nc2n1-c1cccc(C(C)(C)O)n1 [MK1775] (1000 nM) = 68.6
8. CC(C)(C)NC(=O)[C@H]1CC[C@H]2[C@@H]3CC[C@H]4NC(=O)C=C[C@]4(C)[C@H]3CC[C@]12C [Finasteride] (1000 nM) = 99.4

====

- Tested on: MDA-MB-453
- Assay name: normalised response (% of control), CellTox Green; higher = less cell death (100 = DMSO, 0 = benzethonium chloride kill control)
- Assay context: incubation time: 72 h
molecules and their reported normalised response
Reported property: normalised response (%)

1) CCN(CC)CCCC(C)Nc1ccnc2cc(Cl)ccc12 (stereo not given) [Chloroquine] (100000 nM) = 1.49
2) Cn1cc(C2=C(c3cn(C4CCN(Cc5ccccn5)CC4)c4ccccc34)C(=O)NC2=O)c2ccccc21 [Enzastaurin] (1000 nM) = 107
3) C/C(=C\c1csc(C)n1)[C@@H]1C[C@@H]2O[C@]2(C)CCC[C@H](C)[C@H](O)[C@@H](C)C(=O)C(C)(C)[C@@H](O)CC(=O)N1 [Ixabepilone] (10 nM) = 93.6
4) Cn1cc(C2=C(c3cn(C4CCN(Cc5ccccn5)CC4)c4ccccc34)C(=O)NC2=O)c2ccccc21 [Enzastaurin] (100 nM) = 102
5) CC[C@H](CO)Nc1nc(NCc2ccccc2)c2ncn(C(C)C)c2n1 [Seliciclib] (100 nM) = 104
6) C/C(=C\c1csc(C)n1)[C@@H]1C[C@@H]2O[C@]2(C)CCC[C@H](C)[C@H](O)[C@@H](C)C(=O)C(C)(C)[C@@H](O)CC(=O)N1 [Ixabepilone] (1000 nM) = 101
7) COc1cc(Nc2c(C#N)cnc3cc(OCCCN4CCN(C)CC4)c(OC)cc23)c(Cl)cc1Cl [Bosutinib] (100 nM) = 100
8) CC(O)(CS(=O)(=O)c1ccc(F)cc1)C(=O)Nc1ccc(C#N)c(C(F)(F)F)c1 (stereo not given) [Bicalutamide] (1000 nM) = 103
9) CO[C@@]12[C@H](COC(N)=O)C3=C(C(=O)C(C)=C(N)C3=O)N1C[C@@H]1N[C@@H]12 [Mitomycin C] (10000 nM) = 104
10) C=CCN(/C=C1/C(=O)O[C@H](COC)[C@@]2(C)C1=C(O)C(=O)C1=C2[C@H](OC(C)=O)C[C@]2(C)C(=O)CC[C@@H]12)CC=C [Sonolisib] (100 nM) = 106

====

- Tested on: BT-474
- Assay name: normalised response (% of control), CellTiter-Glo; higher = more viable cells (100 = DMSO, 0 = benzethonium chloride kill control)
- Assay context: incubation time: 72 h
compounds and their reported normalised response
Reported property: normalised response (%)

1. CC(C)(C)NC(=O)[C@H]1CC[C@H]2[C@@H]3CC[C@H]4NC(=O)C=C[C@]4(C)[C@H]3CC[C@]12C [Finasteride] (10 nM) = 98.3
2. CC(O)(CS(=O)(=O)c1ccc(F)cc1)C(=O)Nc1ccc(C#N)c(C(F)(F)F)c1 (stereo not drawn) [Bicalutamide] (1 nM) = 110
3. CC1(C)CCC(c2ccc(Cl)cc2)=C(CN2CCN(c3ccc(C(=O)NS(=O)(=O)c4ccc(N[C@H](CCN5CCOCC5)CSc5ccccc5)c(S(=O)(=O)C(F)(F)F)c4)cc3)CC2)C1 [Navitoclax] (10 nM) = 94.5
